Experiment: Bidirectional MDR1-MDCK monolayer permeability
Type: in vitro ADME, canine
Conditions: dog, MDCK-MDR1; 3 µM; read-out: ER
METRIC_NAME: efflux ratio at 3 µM

- QUERY_SMILES: "O=C(O)Cc1ccc(Cc2cc(-c3cccc(Cl)c3)nc(C(F)(F)F)c2)cc1"
  READING: 1.92

* * *

Experiment: Brain disposition in mice
Settings: C57BL/6J, mouse, plasma, po, 10 mg/kg, 4 h after oral 10 mg/kg, read-out: Concentration, Plasma

- QUERY_SMILES: "O=C(Nc1c(Cl)cncc1Cl)c1ccc(OC(F)F)c(OCC2CC2)c1"
  UNIT_NAME: "ng/mL"
  concentration at 4 h: 30.6
- QUERY_SMILES: "O=C(O)Cc1ccc(Cc2cc(-c3cccc(Cl)c3)nc(C(F)(F)F)c2)cc1"
  UNIT_NAME: "ng/mL"
  concentration at 4 h: 3630

* * *

Catalogue of Papp B→A at 3 µM values
Assay: Bidirectional MDR1-MDCK monolayer permeability
Type: in vitro ADME, canine
Conditions: dog, MDCK-MDR1; 3 µM; read-out: Papp Basolateral → Apical
METRIC_NAME: Papp B→A at 3 µM (×10⁻⁶ cm/s)

- QUERY_SMILES: "O=C(O)Cc1ccc(Cc2cc(-c3cccc(Cl)c3)nc(C(F)(F)F)c2)cc1"
  UNIT_NAME: "×10⁻⁶ cm/s"
  READING: 7.18
- QUERY_SMILES: "O=C(Nc1c(Cl)cncc1Cl)c1ccc(OC(F)F)c(OCC2CC2)c1"
  UNIT_NAME: "×10⁻⁶ cm/s"
  READING: 23.9

* * *

Assay: Brain disposition in mice
Conditions: C57BL/6J, mouse, brain, po, 10 mg/kg, oral 10 mg/kg, converted from ng/g, read-out: Unbound brain concentration
Catalogue of concentration at 4 h values

- QUERY_SMILES: "O=C(O)Cc1ccc(Cc2cc(-c3cccc(Cl)c3)nc(C(F)(F)F)c2)cc1"
  UNIT_NAME: "nM"
  concentration at 4 h: 4.2
- QUERY_SMILES: "O=C(Nc1c(Cl)cncc1Cl)c1ccc(OC(F)F)c(OCC2CC2)c1"
  UNIT_NAME: "nM"
  concentration at 4 h: 0.17

* * *

Assay: Brain disposition in mice
Conditions: C57BL/6J, mouse, brain, po, 10 mg/kg, 4 h after oral 10 mg/kg, read-out: Unbound brain concentration
METRIC_NAME: concentration at 4 h (ng/g)

- QUERY_SMILES: "O=C(Nc1c(Cl)cncc1Cl)c1ccc(OC(F)F)c(OCC2CC2)c1"
  READING: 0.07
- QUERY_SMILES: "O=C(O)Cc1ccc(Cc2cc(-c3cccc(Cl)c3)nc(C(F)(F)F)c2)cc1"
  READING: 1.7

* * *

Experiment: Bidirectional MDR1-MDCK monolayer permeability
Assay type: in vitro ADME, canine
Details: dog, MDCK-MDR1; 10 µM; read-out: ER
METRIC_NAME: efflux ratio at 10 µM

- MOLECULE: "O=C(O)Cc1ccc(Cc2cc(-c3cccc(Cl)c3)nc(C(F)(F)F)c2)cc1 [zatolmilast]"
  READING: 1.89

* * *

Assay: in vivo
Conditions: male, C57BL/6J, mouse, iv, 1 mg/kg
METRIC_NAME: half-life (h)

- COMPOUND: "O=C(Nc1c(Cl)cncc1Cl)c1ccc(OC(F)F)c(OCC2CC2)c1 [roflumilast]"
  READING: 3.74
- COMPOUND: "O=C(O)Cc1ccc(Cc2cc(-c3cccc(Cl)c3)nc(C(F)(F)F)c2)cc1 [zatolmilast]"
  READING: 6.35
